Assay system Serine/threonine-protein kinase OSR1 (Homo sapiens, UniProt O95747); read-out recorded as pIC50.
pIC50: −log10 of the molar value.

compound: CN1C(=O)[C@@H](N2CCc3cn(Cc4ccccc4)nc3C2=O)COc2ccccc21 [TP-030-1]
test_target: Serine/threonine-protein kinase OSR1 (Homo sapiens, UniProt O95747)
Sequence (O95747 whole entry): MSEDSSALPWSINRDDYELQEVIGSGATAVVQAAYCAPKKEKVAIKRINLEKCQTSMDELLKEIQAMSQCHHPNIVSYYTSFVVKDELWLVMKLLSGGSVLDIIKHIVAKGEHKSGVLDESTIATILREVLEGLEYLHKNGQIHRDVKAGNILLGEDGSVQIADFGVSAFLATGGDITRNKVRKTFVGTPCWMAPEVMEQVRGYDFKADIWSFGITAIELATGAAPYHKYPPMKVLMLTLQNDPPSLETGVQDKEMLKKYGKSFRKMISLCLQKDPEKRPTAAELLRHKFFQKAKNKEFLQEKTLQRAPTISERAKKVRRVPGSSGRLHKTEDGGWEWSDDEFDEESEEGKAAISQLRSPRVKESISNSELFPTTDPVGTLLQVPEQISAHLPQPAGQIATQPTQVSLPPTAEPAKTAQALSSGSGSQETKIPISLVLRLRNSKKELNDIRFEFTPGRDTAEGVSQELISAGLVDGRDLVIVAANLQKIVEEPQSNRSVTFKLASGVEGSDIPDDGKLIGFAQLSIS
pIC50: 6.00

compound: CN1C(=O)[C@@H](N2CCc3cn(CC4CCS(=O)(=O)CC4)nc3C2=O)COc2ccccc21 [TP-030n]
test_target: Serine/threonine-protein kinase OSR1 (Homo sapiens, UniProt O95747)
pIC50: 6.00

====

test_target: Protein kinase C alpha type (Homo sapiens)
measurement_notes: PKCalpha(PRKALGY1) Takeda global kinase panel
pIC50: −log10 of the molar value.
The entries below are paired with their reported pIC50.
property_name: pIC50

molecule: CN1C(=O)[C@@H](N2CCc3cn(CC4CCS(=O)(=O)CC4)nc3C2=O)COc2ccccc21 [TP-030n]
property_name: pIC50
endpoint_result: 6.00
--
molecule: CN1C(=O)[C@@H](N2CCc3cn(Cc4ccccc4)nc3C2=O)COc2ccccc21 [TP-030-1]
property_name: pIC50
endpoint_result: 6.00
